Cited source for all entries: patent EP2608671B1

assay.protocol: in vivo
condition.set: mouse, po, 20 mg/kg
property: Cmax (ng/mL)
Report only the number, with the unit ng/mL understood.

Given the molecule COc1cc(C(=O)c2c[nH]c(-c3ccc(Cl)cc3)n2)cc(OC)c1OC [12fa] , what is its reported Cmax? 2590

----------
System: LNCaP
assay.protocol: cells
condition.set: Homo sapiens, 96 h, read-out: IC50 ± SEM (nM), LNCaP
property: IC50

O=C(c1cc(O)c(O)c(O)c1)c1c[nH]c(-c2cc(O)c(O)c(O)c2)n1 [13ea] | > 10000 nM
COc1cc(C(=O)c2cn(S(=O)(=O)c3ccccc3)c(-c3cc(OC)c(OC)c(OC)c3)n2)cc(OC)c1OC [11ea] | > 10000 nM
CO/N=C(\c1cc(OC)c(OC)c(OC)c1)c1csc(-c2ccccc2)n1 [2f-trans] | > 10000 nM
COc1cc(C(=O)c2ccc(-c3ccccc3)o2)cc(OC)c1OC | 23 nM
COc1ccc(-c2nc(C(=O)c3ccc(F)cc3)cn2C)cc1 | > 10000 nM

Look up IC50: COc1cc(C(=O)[C@@H]2CSC(c3ccc(O[Si](C)(C)C(C)(C)C)cc3)=N2)cc(OC)c1OC [58a] 549 nM

Using the record for Cc1ccc(C(=O)c2cn(S(=O)(=O)c3ccccc3)c(-c3ccccc3)n2)cc1 [11ah] , report its IC50. > 10000 nM

State the recorded IC50 for this entry: COc1cc(C(=O)c2c[nH]c(-c3ccc(Cl)cc3)n2)cc(OC)c1OC [12fa] 24 nM

Fill in the blank: the reported IC50 of `COc1cc(C(=O)c2cc(-c3ccccc3)on2)cc(OC)c1OC` is ____. > 10000 nM

----------
Tested on: melanoma cell lines (A375, WM-164, B16-F1) and prostate cancer cell lines (LNCaP, DU 145, PC-3, PPC-1)
assay.protocol: SRB cytotoxicity, melanoma and prostate cell panel (averages)
Type: cell-based
condition.set: Prostate cell; Table 2; read-out: IC50 range over tested melanoma and prostate cell lines
pIC50: −log10 of the molar value.
# pIC50 per record follows

COc1cc(/C(=N\O)c2csc(-c3ccccc3)n2)cc(OC)c1OC [2e-trans] | < 5.00

Fill blank: measured pIC50 of the compound COc1cc(/C(=N/O)c2csc(-c3ccccc3)n2)cc(OC)c1OC [2e-cis] is ____. 6.52 to 7.00

----------
Listed compounds paired with reported IC50
System: DU 145
assay.protocol: cells
condition.set: Homo sapiens, DU-145, 96 h, read-out: IC50 ± SEM (nM), DU 145
Please give a number only; it is taken to be in nM.

Past entries and their recorded results:
COc1cc(C(=O)c2csc(-c3ccccc3)n2)cc(OC)c1OC [1h] | 71
COc1cc(C(=O)[C@@H]2CSC(c3ccc(O[Si](C)(C)C(C)(C)C)cc3)=N2)cc(OC)c1OC [58a] | 434
COc1cc(C(=O)c2csc(Nc3ccc(F)cc3)n2)cc(OC)c1OC [5c] | 63
COc1cc(C(=O)c2csc(-c3ccccc3)c2)cc(OC)c1OC [1f] | 26
COc1cc(C(=O)c2csc(-c3cc4ccccc4[nH]3)n2)cc(OC)c1OC [62a] | 32
COc1cc(C(=O)c2cc(-c3ccccc3)ncn2)cc(OC)c1OC [1b] | 6900

Given the compound COc1cc(C(=O)c2coc(-c3ccccc3)n2)cc(OC)c1OC [36a] , what is its reported IC50? 292

Consider the compound COc1cc(/C(=N/O)c2csc(-c3ccccc3)n2)cc(OC)c1OC [2e-cis] and give its measured IC50. 102

Entry under review: COc1cc(C(=O)c2csc(Nc3ccc(Cl)cc3)n2)cc(OC)c1OC [5d] . Reported IC50? 73
